Origin of values: ChEMBL document CHEMBL4346710

- system.under.test: Tyrosine-protein kinase Lck (Homo sapiens)
- Sequence (P06239 whole entry, the tested form may be a part): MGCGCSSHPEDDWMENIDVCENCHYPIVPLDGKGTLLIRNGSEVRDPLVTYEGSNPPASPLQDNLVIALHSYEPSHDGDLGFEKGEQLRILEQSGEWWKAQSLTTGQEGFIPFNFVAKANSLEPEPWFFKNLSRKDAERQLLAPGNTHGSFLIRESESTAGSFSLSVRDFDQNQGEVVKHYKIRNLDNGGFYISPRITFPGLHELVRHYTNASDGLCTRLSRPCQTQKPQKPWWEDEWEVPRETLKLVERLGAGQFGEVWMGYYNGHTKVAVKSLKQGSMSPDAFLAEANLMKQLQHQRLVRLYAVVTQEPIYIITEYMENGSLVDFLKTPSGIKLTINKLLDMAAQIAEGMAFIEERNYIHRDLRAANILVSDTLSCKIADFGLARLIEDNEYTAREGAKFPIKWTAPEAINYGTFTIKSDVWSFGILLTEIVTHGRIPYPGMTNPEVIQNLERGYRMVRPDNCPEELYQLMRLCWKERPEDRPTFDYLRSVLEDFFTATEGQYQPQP
- experiment: Inhibition of recombinant full length human C-terminal His-tagged LCK cytoplasmic domain expressed in baculovirus expression system using fluorophore-labeled tyrosine-2 peptide as substrate incubated for 60 mins by Z'-LYTE assay
attribute.measured: IC50 (nM)
Numbers only here, please. The scale is nM.

Summary line: C=CC(=O)N1CCC(Oc2nc(Nc3ccc(N4CCOCC4)cc3)nc3[nH]cc(-c4cncc(NC)n4)c23)CC1 , Tyrosine-protein kinase Lck (Homo sapiens), reported IC50 = 74

----------
- system.under.test: Epidermal growth factor receptor (Homo sapiens, UniProt P00533)
- Sequence (P00533 whole entry, the tested form may be a part): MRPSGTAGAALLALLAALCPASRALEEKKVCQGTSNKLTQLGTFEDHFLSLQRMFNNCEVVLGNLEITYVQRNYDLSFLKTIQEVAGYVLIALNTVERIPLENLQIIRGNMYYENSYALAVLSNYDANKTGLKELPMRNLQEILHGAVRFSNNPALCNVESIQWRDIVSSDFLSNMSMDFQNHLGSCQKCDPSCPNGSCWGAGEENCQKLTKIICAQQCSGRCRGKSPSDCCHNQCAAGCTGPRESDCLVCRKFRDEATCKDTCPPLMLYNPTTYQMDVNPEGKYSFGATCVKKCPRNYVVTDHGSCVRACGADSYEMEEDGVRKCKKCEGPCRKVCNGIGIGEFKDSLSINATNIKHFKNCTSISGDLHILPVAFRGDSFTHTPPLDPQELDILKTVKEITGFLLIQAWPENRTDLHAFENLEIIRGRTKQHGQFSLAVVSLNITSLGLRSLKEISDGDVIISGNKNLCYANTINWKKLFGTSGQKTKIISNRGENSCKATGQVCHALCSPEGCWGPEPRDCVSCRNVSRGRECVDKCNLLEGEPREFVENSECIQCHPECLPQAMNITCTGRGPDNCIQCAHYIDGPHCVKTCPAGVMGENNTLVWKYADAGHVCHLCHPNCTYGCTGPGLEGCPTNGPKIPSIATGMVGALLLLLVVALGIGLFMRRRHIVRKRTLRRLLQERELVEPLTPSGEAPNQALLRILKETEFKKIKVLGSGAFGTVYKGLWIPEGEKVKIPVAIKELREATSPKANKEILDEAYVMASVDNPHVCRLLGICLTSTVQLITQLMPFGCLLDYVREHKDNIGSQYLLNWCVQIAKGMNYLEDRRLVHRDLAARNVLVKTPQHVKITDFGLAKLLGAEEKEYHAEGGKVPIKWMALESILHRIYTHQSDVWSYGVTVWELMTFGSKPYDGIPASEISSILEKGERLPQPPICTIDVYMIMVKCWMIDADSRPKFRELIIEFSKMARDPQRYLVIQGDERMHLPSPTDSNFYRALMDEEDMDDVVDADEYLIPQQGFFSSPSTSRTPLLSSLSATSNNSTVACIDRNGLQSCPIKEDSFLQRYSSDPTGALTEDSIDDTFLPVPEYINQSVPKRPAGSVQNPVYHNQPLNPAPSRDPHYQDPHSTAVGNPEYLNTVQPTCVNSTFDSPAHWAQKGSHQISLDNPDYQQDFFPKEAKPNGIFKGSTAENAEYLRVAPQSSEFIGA
- experiment: Inhibition of recombinant human N-terminal GST-tagged EGFR kinase domain (696 to end residues) expressed in baculovirus infected Sf21 insect cells using STK as substrate by HTRF assay
attribute.measured: IC50

Examples with their reported IC50 follow.
{"columns": ["smiles.input", "attribute.measured", "result"],
 "data": [
  ["CNc1cncc(-c2c[nH]c3nc(Nc4ccc(N5CCN(C(C)=O)CC5)cc4)nc(Oc4ccccc4)c23)n1", "IC50", "1.05 µM"],
  ["CNc1cncc(-c2c[nH]c3nc(Nc4ccc(N5CCN(C(C)=O)CC5)cc4)nc(OC4CCOCC4)c23)n1", "IC50", "0.937 µM"],
  ["C=CC(=O)N1CCC[C@@H](Oc2nc(Nc3ccc(N4CCN(CC)CC4)cc3)nc3[nH]cc(-c4cncc(NC)n4)c23)C1", "IC50", "0.0087 µM"]
]}

// next item, IC50 requested
Summary line: C=CC(=O)Nc1cccc(Oc2nc(Nc3ccc(N4CCOCC4)cc3)nc3[nH]cc(-c4ccncc4)c23)c1 , Epidermal growth factor receptor (Homo sapiens, UniProt P00533), reported IC50 = 0.0023 µM
